Hello, the source for this data is ChEMBL document CHEMBL6182886, in case you need it.

# pKi annotations
Molecular target: Cannabinoid receptor 2 (Mus musculus, UniProt P47936)
Sequence (P47936 whole entry): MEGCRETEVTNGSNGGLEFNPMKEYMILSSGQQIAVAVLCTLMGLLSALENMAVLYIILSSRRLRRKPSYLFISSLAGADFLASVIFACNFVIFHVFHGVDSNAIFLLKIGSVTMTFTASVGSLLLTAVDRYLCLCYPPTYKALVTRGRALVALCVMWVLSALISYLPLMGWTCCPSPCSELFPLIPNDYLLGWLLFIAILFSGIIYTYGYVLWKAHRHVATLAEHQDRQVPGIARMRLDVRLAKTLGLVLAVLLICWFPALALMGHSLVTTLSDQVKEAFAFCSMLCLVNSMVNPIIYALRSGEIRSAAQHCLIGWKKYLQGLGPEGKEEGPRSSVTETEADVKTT
pKi: −log10 of the molar value.

[
  {
    "SUBSTANCE SMILES": "CCCCCCC1(c2cc(O)c3c(c2)OC(C)(C)[C@@H]2CC[C@@H](O)C[C@@H]32)CN(C)C1",
    "pKi": 7.67
  },
  {
    "SUBSTANCE SMILES": "COCOc1cc(C2=NCCC2)cc2c1[C@@H]1C[C@H](OCOC)CC[C@H]1C(C)(C)O2",
    "pKi": 7.91
  }
]
